The reported measurements were obtained from patent US20020016341A1.

Biological target: FKBP12 (Homo sapiens)
Sequence (P62942 whole entry, species assumed): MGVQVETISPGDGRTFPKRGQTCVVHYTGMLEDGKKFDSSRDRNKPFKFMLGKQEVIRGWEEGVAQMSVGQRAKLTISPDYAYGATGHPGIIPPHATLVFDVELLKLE
Assay: Ki test: inhibition of peptidyl-prolyl isomerase (rotamase) activity, chymotrypsin-coupled assay
Assay type: biochemical
Details: apparent Ki, rotamase inhibition; read-out: Ki
Entries and their Ki values follow.
I only need the number, in nM, no unit after it.

Use the examples below as a reference point.
[[record]]
molecule = "CCC(C)(C)C(=O)C(=O)N1CCC[C@H]1C(=O)CCCC(c1ccc(F)cc1)c1ccc(F)cc1 [Compound 70]"
experimental_value = 457

[[record]]
molecule = "CCC(C)(C)C(=O)C(=O)N1CCC[C@H]1C(=O)CCCCc1ccccc1 [Compound 1]"
experimental_value = 31

[[record]]
molecule = "CCC(C)(C)C(=O)C(=O)N1CCC[C@H]1C(=O)SCCC(c1ccc(F)cc1)c1ccc(F)cc1 [Compound 45]"
experimental_value = 31

[[record]]
molecule = "CCC(C)(C)C(=O)C(=O)N1CCC[C@H]1C(=O)SCc1csc2ccccc12 [Compound 11]"
experimental_value = 299


We next turn to a different molecule, shown below.
Looking up CCC(C)(C)C(=O)C(=O)N1CCCCC1C(=O)SCCCc1ccc2ccccc2c1 (centres unmarked) [Compound 53] , I see its Ki listed as 261
